Tested on: SNB-19 CNS
testDetails: NCI tumour cell line growth inhibition, 48 h; in the data active = GI50 below about 0.43 µM; inactive = the rest
Hi! Could you answer with just one of these? active, inactive

Example results:
                             chemicalstring     label
0  COc1ccc([C@H]2[C@@H](F)C(=O)N2c2cc(OC)c(OC)c(OC)c2)cc1F    active
1  O=C(CCc1nnc2sc(-c3ccc(Cl)cc3Cl)nn12)c1nc2ncccc2[nH]1  inactive
2  CCCCCCCC(=O)SCC/C=C/[C@@H]1CC(=O)NCc2cc(ccn2)C2=N[C@@](C)(CS2)C(=O)N[C@@H](C(C)C)C(=O)O1    active
3  CN1CCN(CCCn2c(=O)c3sc4ncccc4c3n3nnc(-c4ccccc4)c23)CC1  inactive

Data request: # lookup: test call for `COc1ccc(/C=C(/C#N)n2nnc3cccc(F)c32)cc1`
Data returned: inactive

* * *

Test system: XF 498 CNS
testDetails: NCI tumour cell line growth inhibition, 48 h
Task for the reader: assign each of the following compounds its reported log10 TGI.
Hello, just confirming the data are log10 of TGI with units of µM.

                                   compound  recordedendpoint  valueobserved
0  c1ccc(COc2cccc3ccc[n+](Cc4ccccc4)c23)cc1         log10 TGI           1.50

Give log10 TGI for each listed item.
1. Cc1ccc(NC(=O)c2cc3cc(N=Nc4ccccc4C(=O)O)ccc3oc2=O)cc1
2. Cc1cn(C2CC(O)C(CO)O2)c(=O)[nH]c1=O (stereo not given)
3. CCOC(=O)C(=C=C=C(c1ccccc1)c1ccccc1)C(=O)OCC
4. Cn1c2ccccc2c2cc(-c3ccccc3)c3c(c21)C(=O)c1ccccc1C3=O

Data returned:
1. 1.93
2. 2.56
3. 1.48
4. 1.60

* * *

Task for the reader: assign each of the following compounds its reported TGI.
Tested on: SR leukemia
testDetails: NCI tumour cell line growth inhibition, 48 h
One number for each entry, in µM.

compound	TGI / µM
CCN1CCN(c2nc(C)cc(N(CCNc3ccnc4cc(Cl)ccc34)Cc3ccc4c(c3)OCO4)n2)CC1	3.71
CC1OC(OC2C(OC(=O)[C@]34CCC(C)(C)C[C@H]3C3=CC[C@@H]5[C@@]6(C)CC[C@H](OC7OC(C(=O)O)C(O)C(O)C7O)C(C)(C)[C@@H]6CC[C@@]5(C)[C@]3(C)C[C@H]4O)OCC(O)C2O)C(O)C(OC2OCC(O)(CO)C2O)C1OC1OCC(O)C(O)C1O (stereo partly drawn)	18.9
Cc1cc(/C=C/c2ccc3cc(N(C)C)ccc3[n+]2C)c(C)n1-c1ccccc1	1.42

Next item in the queue.
Data request: Quick one: give measured TGI for C=C(Br)C(C)(Br)CCC(Br)C(C)(C)Cl (stereo not drawn)
Data returned: 27.9

* * *

System: KM12 colon
testDetails: NCI tumour cell line growth inhibition, 48 h
Task for the reader: assign each of the following compounds its reported TGI.

Here's what some known entries look like.
compound	TGI
Oc1ccc([I+]c2ccccc2)cc1O	70.7 µM
COc1cc(/C=C/C(=O)CC(=O)/C=C/c2ccc(OC(=O)CCCCC3CCSS3)c(OC)c2)ccc1OC(=O)CCCCC1CCSS1 (stereo unspecified)	> 100 µM
Cc1cccc(NC(=O)Cn2cnc3sc(C(=O)OC(C)C)c(C)c3c2=O)c1	> 50 µM

Give TGI for each listed item.
1. CC[C@H](Nc1ncnc2nc[nH]c12)c1oc2ccccc2c(=O)c1-c1cccc(F)c1
2. COc1ccc(/C=C(/C#N)n2nnc3cccc(F)c32)cc1
3. Cc1cc(C(=O)CCCCOc2ccc(C3=NCCO3)cc2)c(C)n1C
4. N#Cc1c(-c2ccccc2)/c(=C\Nc2ccc(F)cc2)c(=O)n2c1nc1ccccc12
5. CO[C@H]1/C=C(/C)CCC[C@H](C)[C@H](O)[C@@H](C)C(=O)C(C)(C)[C@@H](O)CC(=O)O[C@@H]1/C(C)=C/c1csc(C)n1
6. Cc1cc(N(CCOS(C)(=O)=O)CCOS(C)(=O)=O)ccc1C=O

Data returned:
1. > 100 µM
2. 4.54 µM
3. > 100 µM
4. > 100 µM
5. > 100 µM
6. 54.6 µM

Give TGI for each listed item.
1. C=CCSc1nnc2cc(CN3CCCC3)c(-c3ccc(Cl)cc3)nn12
2. CCCC(=O)OC1CC(n2cc(F)c(=O)[nH]c2=O)OC1COP(=O)(OCC(Cl)(Cl)Cl)OCC(Cl)(Cl)Cl (stereo unspecified)
3. CCOC(=O)c1c(C)nc2c3ccccc3c(C#N)c(C)n12
4. CCOC(=O)C1=C(C)C2C=C(c3cccs3)CC(c3ccc(Cl)cc3)=C2OC1=O (stereo unspecified)
5. CCCCCCCCC/C=C1\CCC(CN2CCOCC2)C1=O (stereo unspecified)
6. O=c1c2sc(=S)n(-c3ccc(F)cc3)c2ncn1/N=C/c1ccc(F)cc1F
7. Cc1ccc(NC(=O)c2cc3cc(N=Nc4ccccc4C(=O)O)ccc3oc2=O)cc1
8. COc1cccc2c1OC1(C=C2)Oc2ccccc2C(=O)N1C (stereo unspecified)

Data returned:
1: 64.7 µM; 2: > 100 µM; 3: > 100 µM; 4: 39.8 µM; 5: 5.2 µM; 6: > 100 µM; 7: > 100 µM; 8: > 100 µM

Give TGI for each listed item.
1. O=c1[nH]c(=O)n(C2OC(CO)C(O)C2O)c2nc(-c3ccc(-c4ccccc4)cc3)cnc12 (stereo unspecified)
2. O=C(/C=C\c1ccc(Cl)c(Cl)c1)c1ccc(Cl)cc1Cl
3. COc1cc2c(c(OC)c1OC)-c1ccc(OC)c(=O)cc1C(NC(=O)c1ccc(N=[N+]=[N-])cc1)CC2 (stereo unspecified)
4. C=C(Br)C(C)(Br)CCC(Br)C(C)(C)Cl (stereo unspecified)
5. OC(c1nc2ccccc2[nH]1)C(O)C(O)C(O)c1nc2ccccc2[nH]1 (stereo unspecified)
6. Cc1c2c(nn1-c1ccc(S(=O)(=O)/N=C3\SCCC(=O)N3c3ccccc3)cc1)-c1ccccc1CC2

Data returned:
1. > 100 µM
2. 25.2 µM
3. 0.0786 µM
4. 32 µM
5. > 100 µM
6. > 100 µM

Give TGI for each listed item.
1. N#CC(C#N)=CNC(N)=S
2. CN(C)c1ccc(C(=N/N=C2\C(=O)Nc3ccccc32)c2ccc(N(C)C)cc2)cc1
3. C/C(=N\NC(=S)NC(CCC(=O)O)C(=O)O)c1ccccn1 (stereo unspecified)
4. NC1=NCC(CN2CCOCC2)O1 (stereo unspecified)
5. C#CC1(O)CCC2C3CCc4cc(Oc5nc(F)nc(-c6c7ccccc7c7sc8ccccc8n67)n5)ccc4C3CC[C@@]21C (stereo partly specified)
6. CCCCC(C(=O)NCCNC(=O)CCC(=O)N(C)O)C(=O)NCCNC(=O)CCC(=O)N(C)O
7. CC1=NS(=O)(=O)c2ccccc2N1
8. Cc1c(S(=O)(=O)c2ccccc2)c(N)n(CCN(C)C)c1C

Data returned:
1. > 100 µM
2. 33.1 µM
3. > 100 µM
4. > 100 µM
5. > 100 µM
6. > 100 µM
7. > 100 µM
8. > 100 µM

Every entry's value here was drawn from PubChem BioAssay (NCI).
